Reference for the values: the supplement of paper PMC6555819

test system: RARa:RXR (NR concentration 270 nM, RXRa partner concentration 90 nM); assay: PBM binding z-score (relative to random genomic background probes); higher = stronger binding; sequences stand for … in GC…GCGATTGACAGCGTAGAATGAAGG
Experimental endpoint: PBM binding z-score
Numbers only.

Study these solved cases before continuing.
# Macromolecule sequence, Test value
records = [
    ("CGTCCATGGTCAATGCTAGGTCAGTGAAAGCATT", 0.816),
    ("CCTTACGGGTCACGAGGTTATACCACGACGAGCG", 6.09),
    ("ACAGACGGGTGATGAAGGTAACTCAGGCTATCAT", -0.078),
    ("GCGACGGGGGCAAAGCAGGTTACCATAAGGTTGG", 2.78),
    ("CCTTACGGGTCACTCCAGGTGATAGCATCGGAGT", 3.53),
]

Provide the reported PBM binding z-score of each entry below, same order.
1. CCTTACGGGTCACTGACAGGGTATAGCATTTGGA
2. ACTTACGGGTCAACGAGCTTATAGCACGCGTATA
3. ATCTCTAGGTAAAGAGAGTTCAGTGAATGCAAAT
4. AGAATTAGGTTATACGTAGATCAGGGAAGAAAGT
5. ACTAGTTGGTCAGCTTAGGTCACACACAATTCGG
6. ATCTCTAGGTAAAAGTTCAGAGAATCCCGAGGAT
7. TCCTGTAGATCAACAGGAGGTTAAGAAAGATCGA

Found:
3.64
4.16
0.79
0.687
2.57
1.76
1.02

====

test system: FXR:RXRa (NR concentration 270 nM, RXRa partner concentration 90 nM); experiment: PBM binding z-score (relative to random genomic background probes); higher = stronger binding; sequences stand for … in GC…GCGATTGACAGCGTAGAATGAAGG
Experimental endpoint: PBM binding z-score

# Macromolecule sequence, PBM binding z-score
data = [
    ("TCTAGTTGGTCGAAGGTCACACACTCGAAATGCG", 2.91),
    ("TCTTGGAGATCAACAGGAGGTTAAGAAAGATCGA", 0.373),
    ("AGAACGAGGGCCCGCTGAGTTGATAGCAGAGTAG", -0.807),
    ("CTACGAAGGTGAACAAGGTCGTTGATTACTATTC", 1.63),
    ("ATTCGGAGGACAAAGGTCAGAGCTACGCCAGTGA", 4.05),
]

Items follow; give PBM binding z-score for each.
1. ATCTCTAGGTAAAGTTCAGTGACAGATCGATAGA
2. CTACCCAGGTGAACAAGGTCGTTGATTACTATTC
3. CTACCAAGGTGAACAAGGTCGTTGAGTACTATTC
4. ACAGACAGGTGAGTGAAGGTGACTCAGCTGGACG
5. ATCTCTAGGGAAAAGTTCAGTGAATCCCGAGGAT
6. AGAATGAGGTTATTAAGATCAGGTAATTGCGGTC

Found:
1.17
0.858
1.64
0.162
-0.0297
1.7

Record summary for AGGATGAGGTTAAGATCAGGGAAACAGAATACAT : reported PBM binding z-score = 2.5

====

Field: PBM binding z-score. Provide a value for each of the sequences that follow.
tested on: PPARg:RXRa 30nM:10nM, anti-RXR (NR concentration 30 nM, RXRa partner concentration 10 nM); assay: PBM binding z-score (relative to random genomic background probes); higher = stronger binding; sequences stand for … in GC…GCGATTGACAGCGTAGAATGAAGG

Below are 3 sequences. Give each one its PBM binding z-score.
1. TCATATAGGTAAAGGTGAAAGTCGAACGATATGA
2. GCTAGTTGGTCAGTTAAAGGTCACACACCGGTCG
3. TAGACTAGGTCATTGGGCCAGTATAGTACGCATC

Found:
4.42
3.67
2.45
